Values were extracted from patent US12679836B2.

Biological target: Ba/F3-EGFR-D770_N771 insSVD C797S cells (Homo sapiens, UniProt P00533, DUP768-770/C797S, cells depend on it)
Sequence (P00533 with tags, fused parts or gaps DUP768-770/C797S): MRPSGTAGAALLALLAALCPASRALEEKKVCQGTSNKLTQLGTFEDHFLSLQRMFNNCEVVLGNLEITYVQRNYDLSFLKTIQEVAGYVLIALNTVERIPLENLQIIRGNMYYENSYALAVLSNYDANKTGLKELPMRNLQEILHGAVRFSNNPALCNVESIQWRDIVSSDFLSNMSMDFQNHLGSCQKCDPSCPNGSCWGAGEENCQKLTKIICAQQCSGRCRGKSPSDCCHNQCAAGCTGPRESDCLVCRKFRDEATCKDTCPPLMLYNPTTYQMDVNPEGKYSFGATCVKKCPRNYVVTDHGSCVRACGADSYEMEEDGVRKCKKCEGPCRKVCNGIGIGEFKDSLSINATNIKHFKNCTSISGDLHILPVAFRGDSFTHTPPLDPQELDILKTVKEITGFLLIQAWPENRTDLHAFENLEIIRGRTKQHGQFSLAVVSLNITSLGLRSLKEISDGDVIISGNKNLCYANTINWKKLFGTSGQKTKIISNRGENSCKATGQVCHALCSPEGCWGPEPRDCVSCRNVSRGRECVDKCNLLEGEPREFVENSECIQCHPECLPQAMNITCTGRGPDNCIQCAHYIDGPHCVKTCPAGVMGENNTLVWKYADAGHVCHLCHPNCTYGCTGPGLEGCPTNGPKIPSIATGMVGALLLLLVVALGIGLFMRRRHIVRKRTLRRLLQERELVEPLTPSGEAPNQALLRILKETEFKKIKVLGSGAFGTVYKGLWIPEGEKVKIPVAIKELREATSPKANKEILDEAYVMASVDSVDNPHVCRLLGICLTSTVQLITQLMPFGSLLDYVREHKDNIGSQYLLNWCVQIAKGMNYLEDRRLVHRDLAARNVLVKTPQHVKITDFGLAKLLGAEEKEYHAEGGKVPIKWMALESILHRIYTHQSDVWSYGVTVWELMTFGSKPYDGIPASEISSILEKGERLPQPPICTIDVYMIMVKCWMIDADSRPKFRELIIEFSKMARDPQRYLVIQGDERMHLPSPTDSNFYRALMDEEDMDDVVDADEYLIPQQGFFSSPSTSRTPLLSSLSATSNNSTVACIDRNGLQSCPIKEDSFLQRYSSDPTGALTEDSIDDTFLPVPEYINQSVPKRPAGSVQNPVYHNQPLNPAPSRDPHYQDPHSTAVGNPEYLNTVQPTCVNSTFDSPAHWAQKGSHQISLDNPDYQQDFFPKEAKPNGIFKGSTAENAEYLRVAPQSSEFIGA
Assay: Ba/F3 cell survival assay, EGFR D770_N771insSVD C797S
Type: cell-based
Details: without IL-3, without EGF, 48 h; read-out: BA/F3 (EGFR 0770_N771 insSVD C797S) IC50
Method: 293T cells from ATCC were transfected with pBABEpuro expression constructs for mutant EGFR (V769_D770insASV, D770_N771insNPG, N771_P772insH, H773_V774insNPH, E746_A750del, L858R, D770_N771insSVD C797S, E746_A750del C797S, L858R C797S, L861Q) or mutant ERBB2 (A775_G776insYVMA) and pCL-Eco packaging vector using Fugene-6 transfection reagent from Promega. […] Cell viability was measured by adding 20 μL of Cell Titer-Glo Luminescent Cell Viability Reagent diluted 1:3 in PBS. […]
Exercise: for every item that follows, state its recorded GI50.
One number for each entry, in nM.

Consider the following illustrative entries.
> print(dat)
                                   compound  result.number
1  COc1c(F)cccc1Nc1c(-c2ccncc2OCC2COCCO2)[nH]c2c1C(=O)NCC2 (single isomer, unassigned) [Example 5]             37
2  Cc1c(Cl)cccc1Nc1c(-c2ccncc2OC[C@@H]2CN(C)CCO2)[nH]c2c1C(=O)NCC2 [Example 42]           19.3

Inquiry: What value of GI50 has been reported for the following compound? COc1c(Cl)cccc1Nc1c(-c2ccncc2OCC2COC(C)(C)CO2)[nH]c2c1C(=O)NCC2 (single isomer, unassigned) [Example 32]
Reply text: 15.8
